Target: T1, Tp0751_(115–237) (Treponema pallidum subsp. pallidum, …, UniProt O83732)
T1 construct: Tp0751 of Treponema pallidum, amino acids 115-237 (N-terminal truncation; lipocalin structural fold); also called Tp0751 lipocalin structural/functional domain
T1 sequence (O83732 115-237): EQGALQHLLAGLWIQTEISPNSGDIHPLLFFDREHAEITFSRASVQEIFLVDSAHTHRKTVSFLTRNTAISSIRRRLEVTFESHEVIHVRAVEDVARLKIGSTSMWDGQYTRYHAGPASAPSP
Test: ELISA; epitope mapping: 33pM of antibody on plate-coated Tp0751_(24–237), Tp0751_(99–237) or Tp0751_(115–237)
Conditions: both partners purified
assay-endpoint: binding result

2091E9 (antibody, V domains shown, made as rabbit IgG; source: produced and purified as rabbit IgG by Sino Biological) VH: QSVEESGGRLVTPGGSLTLTCTVSGFSLSSYVMTWVRQAPGKGLEWIGYIYIDGYTTWYASWVKGRFTISRTSTTVDLKMTSLSTEDTATYFCVRVGATIDFMMRRLDLWGQGTLVTVSS VL: DVVMTQTPSSVSAAVRGTVTIKCQASPSVYSDYLSWYQQKPGQRPKLLMYGTSTLASGVPSRFKGSGSGTQFTLTISDVQCDDAATYYCAGGFNSGADSFAFGGGTEVVVQ | binds
2101B3 (antibody, V domains shown, made as rabbit IgG; source: produced and purified as rabbit IgG by Sino Biological) VH: QSLEESGGDLVKPGASLTLTCTASGLDFSGYYYICWVRQAPGKGLEWIGCIWPGDGDTDYASWAKGRFTVSKTSSTTVDLKVTTLTAADTATYFCGRLLGSGSAYFNLWGPGTLVTVSS VL: AVVMTQTPSSVSEAVGGTVTIKCQASQTIGEALAWYQQKPGQPPKLLIYKASTVASGVPWRFKGSGCGSEYTLTISGVQCEDAATYYCQQGYSLTIIDNLFGGGTEVVVE | binds
2101D12 (antibody, V domains shown, made as rabbit IgG; source: produced and purified as rabbit IgG by Sino Biological) VH: QQLEESGGGLVKPGGTLTLTCKASGWDFSSSYWISWVRQAPGKGLEWIAYINTDSLKTYYATWAKGRFTVSKTSSTTVTLQVTSLTAADTATYFCADGAFWGPGTLVTVSS VL: DVVMTQTPASVSAAVGGTVTINCQASQSINSWLSWYQQKPGQPPKRLINDASTLESGVPSRFKGSGCGTQFTLTISDLECADAATYYCQSHYFSRSIDYYNAFGGGTEVVVK | binds
